target: GLUT1 (Homo sapiens, UniProt P11166); experiment: Indirect measurement of GLUT1 activity by quantification of intracellular ATP levels (glucose induced ATP increase); type: cell-based; parameters: endogenous in cells; host or cells: DLD1 or CHO-K1; settings: read-out: IC50 regarding glucose induced ATP increase (GLUT1 inhibition)
ATTRIBUTE MEASURED: log10 of IC50 (log10 of the value in nM)
Hello, just confirming the data are log10 of IC50 with units of nM.

Past entries and their recorded results:
>>> observed_result("Cc1nn(Cc2ccc(C#N)cc2)c(C(C)C)c1NC(=O)c1cc(C(N)=O)nc2ccccc12")
1.60
>>> observed_result("COC(=O)c1ccc(Cn2nc(C(F)(F)F)c(NC(=O)c3cc(C(N)=O)nc4cc(F)ccc34)c2C)cc1")
0.36
>>> observed_result("Cc1cc(Cn2nc(C)c(NC(=O)c3cc(C(N)=O)nc4cccc(F)c34)c2C)ccc1C#N")
-0.30
>>> observed_result("Cc1cccc(Cn2nc(C(F)(F)F)c(NC(=O)c3cc(C(N)=O)nc4ccccc34)c2C)c1")
0.79

[in] Form field: reported log10 of IC50 of COc1cc(C(=O)Nc2c(C#N)nn(Cc3ccc(F)cc3)c2C)c2ccccc2n1
[out] 1.53

[in] Consider the molecule Cc1cccc(Cn2nc(C)c(NC(=O)c3cc(C(F)(F)F)nc4c(Cl)cc(Cl)cc34)c2C)c1 and give its measured log10 of IC50.
[out] 1.23

[in] Name the recorded log10 of IC50 for Cc1nn(C(C)CCc2ccc(F)cc2)c(C)c1NC(=O)c1cc(C(F)(F)F)nc2ccc(Br)cc12 (racemic) .
[out] 2.81

====

Molecular target: GLUT1 (Homo sapiens, UniProt P11166)
Sequence (P11166 1-492): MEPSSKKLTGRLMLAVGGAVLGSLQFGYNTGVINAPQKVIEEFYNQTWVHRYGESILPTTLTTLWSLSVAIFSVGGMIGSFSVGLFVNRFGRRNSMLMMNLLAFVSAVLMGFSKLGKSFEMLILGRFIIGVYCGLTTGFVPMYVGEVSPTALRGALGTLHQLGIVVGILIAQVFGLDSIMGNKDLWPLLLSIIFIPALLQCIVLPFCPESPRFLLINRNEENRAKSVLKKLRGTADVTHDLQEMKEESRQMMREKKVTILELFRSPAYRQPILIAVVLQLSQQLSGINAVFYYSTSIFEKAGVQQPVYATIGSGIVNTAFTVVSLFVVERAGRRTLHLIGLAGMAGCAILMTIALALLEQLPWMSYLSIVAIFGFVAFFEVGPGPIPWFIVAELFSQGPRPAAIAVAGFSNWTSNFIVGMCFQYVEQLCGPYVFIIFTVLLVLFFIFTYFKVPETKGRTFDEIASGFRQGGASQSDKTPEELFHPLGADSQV
Assay: Indirect measurement of GLUT1 activity by quantification of intracellular ATP levels (glucose induced ATP increase)
Format: cell-based
Design: endogenous in cells; host or cells: DLD1 or CHO-K1
Details: read-out: IC50 regarding glucose induced ATP increase (GLUT1 inhibition)
ATTRIBUTE MEASURED: IC50 (nM)
// units = nM; emit number, no label

Some compounds with known IC50 results, for comparison:
>>> observed_result("Cc1nn(Cc2cccc(F)c2)c(C)c1NC(=O)c1cc(C(F)(F)F)nc2c(Cl)cc(Cl)cc12")
519
>>> observed_result("COc1cccc(Cn2nc(C)c(NC(=O)c3cc(OC)nc4ccccc34)c2C)c1")
229
>>> observed_result("Cc1c(NC(=O)c2cc(C(=O)NCCN3CCOCC3)nc3cc(F)ccc23)c(C(F)(F)F)nn1Cc1ccc(C#N)cc1")
336

Pending compound:
[in] Fill in: IC50 of CCc1nn(Cc2ccc(F)cc2)c(CC)c1NC(=O)c1cc(C(N)=O)nc2c(F)cccc12 is ___
[out] 425

====

Target: GLUT1 (Homo sapiens, UniProt P11166)
Sequence (P11166 1-492): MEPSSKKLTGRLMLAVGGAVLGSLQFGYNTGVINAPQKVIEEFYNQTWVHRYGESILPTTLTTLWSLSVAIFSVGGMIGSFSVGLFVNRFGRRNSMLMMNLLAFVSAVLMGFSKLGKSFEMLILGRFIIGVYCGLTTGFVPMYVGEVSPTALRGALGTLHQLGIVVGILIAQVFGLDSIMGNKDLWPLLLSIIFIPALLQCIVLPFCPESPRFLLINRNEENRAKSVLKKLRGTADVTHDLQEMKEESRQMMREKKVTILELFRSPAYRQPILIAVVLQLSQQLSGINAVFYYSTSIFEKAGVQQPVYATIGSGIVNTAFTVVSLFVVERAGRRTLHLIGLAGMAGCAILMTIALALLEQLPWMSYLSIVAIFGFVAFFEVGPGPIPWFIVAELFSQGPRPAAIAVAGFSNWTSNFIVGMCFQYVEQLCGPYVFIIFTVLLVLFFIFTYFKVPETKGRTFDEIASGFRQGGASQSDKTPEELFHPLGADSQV
Test: Indirect measurement of GLUT1 activity by quantification of intracellular ATP levels (glucose induced ATP increase)
Format: cell-based
Parameters: endogenous in cells; host or cells: DLD1 or CHO-K1
Details: read-out: IC50 regarding glucose induced ATP increase (GLUT1 inhibition)
Excerpt: Indirect Measurement of GLUT1 and GLUT2 Activity by Quantification of Intracellular ATP Levels It is well known that a combination of small-molecule inhibitors of mitochondrial electron transport chain and glucose catabolism synergistically suppress ATP production and impair cellular viability (Ulanovskaya et al., 2008, 2011; Liu, et al. 2001). We therefore used DLD1 or CHO-K1 cells in combination with an oxidative phosphorylation inhibitor to identify GLUT1 and GLUT2 inhibitors. […]
ATTRIBUTE MEASURED: pIC50
Scale note: pIC50 = -log10(concentration in M).

Record excerpt, results attached:
>>> observed_result("Cc1nn(C(C)CCc2ccc(F)cc2)c(C)c1NC(=O)c1cc(C(N)=O)nc2ccccc12 (racemic)")
7.40
>>> observed_result("Cc1nn(Cc2cccnc2C#N)c(C)c1NC(=O)c1cc(C(F)(F)F)nc2ccc(Br)cc12")
7.20
>>> observed_result("COc1cc(C(=O)Nc2c(C(F)(F)F)nn(CCc3ccc(F)cc3)c2C)c2ccccc2n1")
6.02
>>> observed_result("Cc1c(NC(=O)c2cc(C(N)=O)nc3cc(F)c(Cl)cc23)c(C(F)(F)F)nn1Cc1ccc(CC#N)cc1")
8.96
>>> observed_result("Cc1nn(CC2CCN(C(=O)OC(C)(C)C)CC2)c(C)c1NC(=O)c1cc(C(N)=O)nc2ccccc12 [Example 1184]")
6.62
>>> observed_result("Cc1nn(Cc2ccc(C(=O)NCCC3CCCN3C)cc2)c(C)c1NC(=O)c1cc(C(F)(F)F)nc2ccc(Br)cc12 (stereo not drawn)")
6.17
>>> observed_result("Cc1ccccc1Cn1nc(C)c(NC(=O)c2cc(C(F)(F)F)nc3c(Cl)cc(Cl)cc23)c1C")
6.55
>>> observed_result("Cc1nn(Cc2ccc(CC(=O)NCCO)cc2)c(C)c1NC(=O)c1cc(C(F)(F)F)nc2ccc(Br)cc12")
6.06
>>> observed_result("Cc1cc(C(=O)Nc2c(C)nn(Cc3ccc(F)cc3)c2C)c2cc(F)ccc2n1")
6.54
>>> observed_result("CC(=O)c1cccc(Cn2nc(C)c(NC(=O)c3cc(C(N)=O)nc4cccc(F)c34)c2C)c1")
7.73

[in] What value of pIC50 has been recorded for this entry: CCOC(=O)c1cc(Cn2nc(C)c(NC(=O)c3cc(C(N)=O)nc4cc(F)ccc34)c2C)on1
[out] 7.77

[in] Endpoint output: pIC50 of Cc1nn(Cc2ccc(F)cc2)c(C)c1NC(=O)c1c2c(nc3ccc(Br)cc13)CCCC2 . Value?
[out] 7.57

====

target: GLUT1 (Homo sapiens); test: Indirect measurement of GLUT1 activity by quantification of intracellular ATP levels (glucose induced ATP increase); type: cell-based; set-up: endogenous in cells; host or cells: DLD1 or CHO-K1; conditions: read-out: IC50 regarding glucose induced ATP increase (GLUT1 inhibition)
API: label(entry) gives class 1 if the entry's IC50 is strictly smaller than 200 nM; on equality or larger values it gives class 0.

>>> group("CC(C)c1nn(Cc2ccc(F)cc2)c(C(C)C)c1NC(=O)c1cc(C(F)(F)F)nc2ccc(Br)cc12")
"class 0"
>>> group("Cc1c(NC(=O)c2cc(C(N)=O)nc3cc(F)ccc23)c(C(F)(F)F)nn1Cc1ccc(C#N)cc1O")
"class 1"
>>> group("COc1ccc(CCn2nc(C)c(NC(=O)c3cc(OC)nc4ccccc34)c2C)cc1")
"class 0"
>>> group("Cc1c(NC(=O)c2cc(C(F)(F)F)nc3cc(F)c(F)cc23)c(C(F)(F)F)nn1Cc1ccc(C#N)cc1")
"class 1"
>>> group("Cc1nn(Cc2ccc(F)c(F)c2)c(C)c1NC(=O)c1cc(C(F)(F)F)nc2cc(Br)ccc12")
"class 1"
>>> group("Cc1nn(Cc2ccc(S(C)(=N)=O)cc2)c(C)c1NC(=O)c1cc(C(F)(F)F)nc2ccc(Br)cc12 (racemic)")
"class 1"

Here is another compound to look at.
[in] Decide: IC50 of Cc1c(NC(=O)c2cc(C(N)=O)nc3ccc(Br)cc23)c(C(F)(F)F)nn1Cc1ccc(CC#N)cc1 strictly below 200 nM?
[out] class 1
